- assay name: NCI Yeast Anticancer Drug Screen. Data for the wt2 strain (AID 169)
- settings: S. cerevisiae wt2 strain growth inhibition; at 100.0 µM
- Method: Growth inhibition of yeast strains with defined genetic alterations is measured as a screen for potential anti-cancer activity. Selected strains with alterations in DNA damage repair or cell cycle control were exposed to compounds and growth inhibition was measured relative to vehicle treated controls. The strain used in this assay is wt2
About 79,000 compounds went through this panel and 15% of them were active in at least one assay; those are over-represented in the sample as a whole. Activity calls are given as the source filed them. No stated cut-off is given here; in the data, active means growth inhibition above about 70%; inactive means the rest.
Respond only with the outcome that fits, drawn from t (active), f (inactive)

Query block: Any idea what this test logged for CSc1nc(C)c(CCOC(C)=O)c(N=P(c2ccccc2)(c2ccccc2)c2ccccc2)n1 ?
Result block: t

Query block: Any idea what this test logged for CCCCOCn1c(=O)[nH]c(=O)c2cc(Br)ccc21 ?
Result block: f

Query block: Any idea what this test logged for CCCCC/C(=C(\C#N)C(=O)OCC)c1ccccc1 ?
Result block: f

Query block: Any idea what this test logged for COc1ccc(C(=O)C(CN(C)C)CN(C)C)cc1 ?
Result block: t

Query block: Any idea what this test logged for C=C1C(=O)OC2CC1C(OC(C)=O)C/C(C)=C/CC/C(C)=C\CCC2(C)O (stereo not drawn) ?
Result block: t

Query block: Any idea what this test logged for CCCC(=O)Oc1ccc(/C=N/NC(N)=S)nc1 ?
Result block: f

Query block: Any idea what this test logged for C/C(=N\Nc1ccc([N+](=O)[O-])cc1[N+](=O)[O-])c1sc(-n2nc(-c3ccccc3)cc2-c2ccccc2)nc1C ?
Result block: f

Query block: Any idea what this test logged for Oc1ccc(O)c(Cc2ccccc2)c1 ?
Result block: t

Query block: Any idea what this test logged for O=C(O)c1ccccc1/C=N/N=C1c2ccccc2-c2ccccc21 ?
Result block: f

Query block: Any idea what this test logged for CN(C)/C=C/c1nnc([N+](=O)[O-])s1 ?
Result block: t

Query block: Any idea what this test logged for Cc1cccc[n+]1C1CCc2c(ccc3ccccc23)C1=O (stereo not drawn) ?
Result block: f

Query block: Any idea what this test logged for Cc1ccc2nc(-c3cccc([N+](=O)[O-])c3)oc(=O)c2c1 ?
Result block: f

Query block: Any idea what this test logged for CC(C)(C)C1=CC(=CC=C2C=CN(CCCCCCCCCCCO)C=C2)C=C(C(C)(C)C)C1=O ?
Result block: t

Query block: Any idea what this test logged for Cn1c(=O)c2c(nc(N)n2C2OC(CO)C(O)C2O)n(C)c1=O (stereo not drawn) ?
Result block: f

Query block: Any idea what this test logged for COc1ccc([N+](=O)[O-])c2c(NCCCN(C)C)c3ccccc3nc12 ?
Result block: f

Query block: Any idea what this test logged for COC(=O)CCC(NC(=S)N/N=C(\C)c1ccccn1)C(=O)OC (stereo not drawn) ?
Result block: t

Query block: Any idea what this test logged for COc1cc(C2c3cc4c(cc3OC(OC(C)=O)C2C)OCO4)cc(OC)c1OC (stereo not drawn) ?
Result block: f

Query block: Any idea what this test logged for CC1CC(C)(C)CC(OCCN2CCCCC2)(c2ccccc2)C1 (stereo not drawn) ?
Result block: t

Query block: Any idea what this test logged for O=C1OC(C2=CC(=O)c3ccccc3C2=O)C(Cl)=C1Cl (stereo not drawn) ?
Result block: f

Query block: Any idea what this test logged for CC(C)c1ccc(NC(=S)NC(=O)c2ccccc2)cc1 ?
Result block: f

Query block: Any idea what this test logged for C=C(Cl)COC(=O)Nc1cccc(Cl)c1 ?
Result block: t

Query block: Any idea what this test logged for CCC(C)OC(=O)Nc1ccc(C)c(NC(=O)OC(C)CC)c1 (stereo not drawn) ?
Result block: t

Query block: Any idea what this test logged for Clc1ccc2c(c1)N(CCCN1CCCC13CCCCC3)c1ccccc1S2 ?
Result block: f

Query block: Any idea what this test logged for CCO/C(C)=C(/C#N)C(N)=S ?
Result block: f

Query block: Any idea what this test logged for Cc1ccc2c3ccc4c(c3n(C)c2c1)C(=O)C=CC4=O ?
Result block: f

Query block: Any idea what this test logged for O=C1c2ccccc2C(=O)N1CCCC(=O)n1cc(F)c(=O)[nH]c1=O ?
Result block: t

Query block: Any idea what this test logged for CN(C)c1ccc(C2CC(C)(O)Oc3cc4c(cc32)OCO4)cc1 (stereo not drawn) ?
Result block: f

Query block: Any idea what this test logged for CCCC/C([O-])=C1/C(=O)N(c2ccccc2)N=C1C.CCCC/C([O-])=C1/C(=O)N(c2ccccc2)N=C1C.[Cu+2] ?
Result block: f

Query block: Any idea what this test logged for CCCCOP(=O)(CCCP(=O)(OCCCC)OCCCC)OCCCC ?
Result block: t

Query block: Any idea what this test logged for O=C(NNc1ccccc1)C(O)C(O)C(O)C(O)C(O)CO (stereo not drawn) ?
Result block: t

Query block: Any idea what this test logged for CCCCCCCCCCCCCCCCCC(=O)NCCCN(C)C ?
Result block: t

Query block: Any idea what this test logged for O=C(O)C1CC(c2ccccc2)=NN1c1ccccc1 (stereo not drawn) ?
Result block: t

Query block: Any idea what this test logged for CC1OC(O[C@H]2/C=C/C=C/C=C/C=C/C=C/C=C/C=C/[C@H](C)[C@@H](O)[C@@H](C)[C@H](C)OC(=O)C[C@H](O)C[C@H](O)CC[C@@H](O)[C@H](O)C[C@H](O)C[C@]3(O)C[C@H](O)[C@@H](C(=O)O)[C@H](C2)O3)C(O)C(N)C1O (stereo partly drawn) ?
Result block: t

Query block: Any idea what this test logged for CCCCOC(=O)Nc1ccc(C)c(NC(=O)OCCCC)c1 ?
Result block: f

Query block: Any idea what this test logged for O=C1c2ccccc2C(=O)c2cc(CCl)ccc21 ?
Result block: f

Query block: Any idea what this test logged for CCCOC(=O)C(F)C(Br)C(=O)OCCC (stereo not drawn) ?
Result block: t

Query block: Any idea what this test logged for COc1cc2ccnc(-c3c4ccccc4c(N)c4c(OC)c(OC)ccc34)c2cc1OC ?
Result block: f

Query block: Any idea what this test logged for CCCC(=O)Oc1c(C)cc([N+](=O)[O-])cc1[N+](=O)[O-] ?
Result block: t

Query block: Any idea what this test logged for Oc1[nH]c2ccccc2c1N=NC(=S)N1CCCCC1 ?
Result block: t

Query block: Any idea what this test logged for COc1cc(CSc2ccc(O)cc2)cc(O)c1O ?
Result block: f

Query block: Any idea what this test logged for Cc1cc(C)c(NC(=S)NC(=O)c2ccccc2)cc1C ?
Result block: f

Query block: Any idea what this test logged for COc1cc(C2SCC(=O)N2c2ccc(-c3ccc(-n4c(-c5ccccc5)nc5ccccc5c4=O)cc3)cc2)ccc1O (stereo not drawn) ?
Result block: f

Query block: Any idea what this test logged for C[C@]12CC[C@H](O)CC1=CC[C@@H]1C2CC[C@]2(C)C(=O)NC(=O)CC12 (stereo partly drawn) ?
Result block: t
